Reference source: ChEMBL document CHEMBL1135876

Field: pKi. Provide a value for each of the compounds that follow.
Target: Melanocortin receptor 5 (Homo sapiens, UniProt P33032)
Sequence (P33032 whole entry): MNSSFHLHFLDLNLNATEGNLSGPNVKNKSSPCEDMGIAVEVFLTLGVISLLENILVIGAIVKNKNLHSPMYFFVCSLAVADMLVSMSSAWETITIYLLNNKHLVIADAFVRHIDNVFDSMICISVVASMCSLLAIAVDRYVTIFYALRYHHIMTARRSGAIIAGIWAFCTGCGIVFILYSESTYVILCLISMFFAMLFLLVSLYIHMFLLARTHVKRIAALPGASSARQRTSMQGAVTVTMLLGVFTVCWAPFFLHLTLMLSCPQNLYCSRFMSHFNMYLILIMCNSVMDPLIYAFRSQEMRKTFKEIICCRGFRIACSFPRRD
Experiment: Binding affinity in competition with [125I]NDP-MSH on recombinant melanocortin 5 receptor
pKi is a log-scale quantity: -log10 of the concentration expressed in molar.

Documented pKi of `N=C(N)NCCC[C@H](NCc1ccc2ccccc2c1)C(=O)Nc1cccc2ccccc12` : 5.06

Documented pKi of `NC(=O)[C@H](Cc1c[nH]c2ccccc12)NCc1ccc2ccccc2c1` : 4.38

###

Field: Ki. Provide a value for each of the compounds that follow.
Target: Melanocortin receptor 5 (Homo sapiens, UniProt P33032)
Test: Binding affinity in competition with [125I]NDP-MSH on recombinant melanocortin 5 receptor
Numbers only here, please. The scale is µM.

Documented Ki of `N=C(N)NCCC[C@H](NCc1ccc2ccccc2c1)C(=O)N[C@@H](Cc1c[nH]c2ccccc12)C(N)=O` : 74

Documented Ki of `NC(=O)[C@@H](Cc1ccc2ccccc2c1)NCc1c[nH]c2ccccc12` : 95

Documented Ki of N=C(N)NCCC[C@H](NCC1CCc2ccccc2C1)C(N)=O (stereo not given in full) : 130

Documented Ki of `NC(=O)[C@@H](Cc1c[nH]c2ccccc12)NCc1ccc2ccccc2c1` : 37

Documented Ki of `N=C(N)NCCC[C@@H](NCc1ccc2ccccc2c1)C(=O)N[C@@H](Cc1c[nH]c2ccccc12)C(N)=O` : 56
